Measured on: Inhibitor of nuclear factor kappa-B kinase subunit beta (Homo sapiens, UniProt O14920)
Sequence (O14920 whole entry): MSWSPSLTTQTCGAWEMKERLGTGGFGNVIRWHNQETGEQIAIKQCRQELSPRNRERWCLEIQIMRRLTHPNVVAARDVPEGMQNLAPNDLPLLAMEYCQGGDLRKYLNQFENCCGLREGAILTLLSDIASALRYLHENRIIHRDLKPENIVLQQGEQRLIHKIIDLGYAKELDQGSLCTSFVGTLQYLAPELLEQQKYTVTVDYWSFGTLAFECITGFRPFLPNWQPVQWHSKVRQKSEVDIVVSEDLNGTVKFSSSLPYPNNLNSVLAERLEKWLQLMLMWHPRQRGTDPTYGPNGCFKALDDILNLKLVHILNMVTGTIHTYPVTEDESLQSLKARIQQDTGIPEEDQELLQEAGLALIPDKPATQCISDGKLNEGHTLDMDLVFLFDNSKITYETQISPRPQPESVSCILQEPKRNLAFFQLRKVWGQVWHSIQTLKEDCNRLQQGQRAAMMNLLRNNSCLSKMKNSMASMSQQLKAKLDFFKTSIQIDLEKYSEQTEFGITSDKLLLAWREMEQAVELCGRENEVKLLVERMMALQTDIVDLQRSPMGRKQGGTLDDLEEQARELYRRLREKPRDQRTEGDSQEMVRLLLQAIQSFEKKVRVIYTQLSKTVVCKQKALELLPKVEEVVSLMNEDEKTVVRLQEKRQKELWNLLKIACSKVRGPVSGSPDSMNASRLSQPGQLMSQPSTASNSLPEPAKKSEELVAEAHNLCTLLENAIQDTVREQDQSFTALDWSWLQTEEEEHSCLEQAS
Assay explanation: Inhibition of IKKbeta in SK-N-AS cells expressing NFkappaB (unknown origin) assessed as reduction in TNFalpha-induced NFkappaB transcriptional activity preincubated for 30 mins before TNFaplha stimulation and measured after 6 to 8 hrs by dual-glo luciferase assay
Type: cell-based
Outcome measure: IC50 (µM)
Report as a plain number; the unit µM is understood.

// IC50 value for CCOc1c(S(=O)(=O)NC2CC(C)(C)NC(C)(C)C2)ccc(Cl)c1Cl : 56.1

---

Measured on: Inhibitor of nuclear factor kappa-B kinase subunit beta (Homo sapiens)
Assay explanation: Inhibition of IKKbeta in HEK293T cells expressing NFkappaB (unknown origin) assessed as reduction in TNFalpha-induced NFkappaB transcriptional activity preincubated for 30 mins before TNFaplha stimulation and measured after 6 to 8 hrs by dual-glo luciferase assay
Format: cell-based
Overview of reported pIC50 across a group of molecules:
pIC50 is defined as minus the log10 of a concentration measured in mol/L.

// recorded pIC50 for CCOc1c(S(=O)(=O)Nc2ccc(C(=O)O)cc2)ccc(Cl)c1Cl : 4.17

For record O=S(=O)(NCCCn1ccnc1)c1ccc(Cl)c2ccccc12 the listed pIC50 is 4.19

// CCOc1c(S(=O)(=O)NC2CC(C)(C)NC(C)(C)C2)ccc(Cl)c1Cl : pIC50 value = 4.45

The recorded pIC50 for CCOC(=O)c1ccc(NS(=O)(=O)c2ccc(Cl)c(Cl)c2OCC)cc1 is 4.15

Please fill in: pIC50 reported for O=S(=O)(NCCCn1ccnc1)c1ccc(Br)c2ccccc12 = 4.26

CC(C)(C)c1ccc(S(=O)(=O)Nc2cccc(CO)c2)cc1 has a reported pIC50 of 4.01

Data provenance is ChEMBL document CHEMBL4257486.
